A set of compounds tested on UniProt:Q93009, with measured IC50:

Reference set (2 entries):
- compound: "O=c1ccn(CC(F)F)c(=O)n1Cc1cc2nccc(-c3cc(Cl)cc4c3N(C3CCNC3)C[C@H]3C[C@@H]43)c2s1 (stereo in doubt) [Example 115]"
  system-name: "UniProt:Q93009"
Sequence (Q93009 whole entry): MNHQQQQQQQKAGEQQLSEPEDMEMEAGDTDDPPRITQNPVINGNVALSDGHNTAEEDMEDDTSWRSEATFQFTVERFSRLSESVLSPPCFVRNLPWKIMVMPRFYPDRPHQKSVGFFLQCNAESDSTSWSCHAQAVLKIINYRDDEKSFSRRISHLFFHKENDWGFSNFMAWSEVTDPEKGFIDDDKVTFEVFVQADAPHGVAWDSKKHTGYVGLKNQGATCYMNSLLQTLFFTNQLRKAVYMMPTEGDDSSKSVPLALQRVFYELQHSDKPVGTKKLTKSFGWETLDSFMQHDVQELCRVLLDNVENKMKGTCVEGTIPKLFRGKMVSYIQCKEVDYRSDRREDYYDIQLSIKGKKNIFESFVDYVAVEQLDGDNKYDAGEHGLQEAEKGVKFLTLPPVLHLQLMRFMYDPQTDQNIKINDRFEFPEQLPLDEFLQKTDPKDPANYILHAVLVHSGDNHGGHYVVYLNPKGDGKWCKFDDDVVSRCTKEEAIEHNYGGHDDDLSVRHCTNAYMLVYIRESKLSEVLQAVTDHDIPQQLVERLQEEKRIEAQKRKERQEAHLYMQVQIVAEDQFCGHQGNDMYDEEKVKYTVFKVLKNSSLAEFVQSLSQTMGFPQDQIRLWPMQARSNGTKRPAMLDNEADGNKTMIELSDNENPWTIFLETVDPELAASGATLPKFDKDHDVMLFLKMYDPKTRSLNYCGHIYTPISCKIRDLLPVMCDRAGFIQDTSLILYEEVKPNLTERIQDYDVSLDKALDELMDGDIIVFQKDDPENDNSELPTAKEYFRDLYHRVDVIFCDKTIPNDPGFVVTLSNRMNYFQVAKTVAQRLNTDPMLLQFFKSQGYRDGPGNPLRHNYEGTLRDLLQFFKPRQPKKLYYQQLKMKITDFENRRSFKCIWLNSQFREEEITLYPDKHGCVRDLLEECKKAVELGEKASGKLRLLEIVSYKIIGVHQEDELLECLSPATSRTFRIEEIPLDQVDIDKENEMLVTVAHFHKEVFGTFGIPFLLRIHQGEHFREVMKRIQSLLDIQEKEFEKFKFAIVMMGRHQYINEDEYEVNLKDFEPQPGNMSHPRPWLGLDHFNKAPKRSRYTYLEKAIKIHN
  IC50: "< 10 nM"
- compound: "CC(C)(C)c1cnn(Cc2cc3nccc(-c4cc(C#N)cc5c4N([C@@H]4CN[C@@H](CO)C4)C[C@H]4C[C@@H]54)c3s2)c(=O)c1 (single isomer, unassigned) [Example 192a]"
  system-name: "UniProt:Q93009"
  IC50: "< 10 nM"

Query: Give IC50 for O=c1ccn(C[C@@H](O)C(F)(F)F)c(=O)n1Cc1cc2nccc(-c3cc(Cl)cc4c3N([C@H]3CCNC3)CCC4)c2s1 [Example 65] tested on UniProt:Q93009.
Reply: < 10 nM

Query: Supply IC50 measured with UniProt:Q93009 for CN1CCC(=O)N(Cc2cc3nccc(-c4cc(Cl)cc5c4N([C@H]4CCNC4)CCC5)c3s2)C1=O [Example 76] .
Reply: < 10 nM

Query: Fetch value of IC50 on UniProt:Q93009 for N#Cc1cc2c(c(-c3ncnc4cc(Cn5c(=O)ccn(CC(F)(F)F)c5=O)sc34)c1)N([C@@H]1CCNC1)CCC2 [Example 93] .
Reply: < 10 nM

Query: Please report the measured IC50 for CN1CCC(CN2CCCc3cc(Cl)cc(-c4ccnc5cc(CN6C(=O)CCC6=O)sc45)c32)CC1 [Example 50] tested on UniProt:Q93009.
Reply: 10 to 100 nM
